Where do these numbers come from? They come from patent US20220324970A1.

- Subject of test: T1, human pIgR extracellular domain 4-domain 5 (D4-D5) (human, UniProt P01833 350-565)
- T1 construct: HIS-tagged construct made in HEK293 cells; also called hpIgR domains 4-5
- T1 chain: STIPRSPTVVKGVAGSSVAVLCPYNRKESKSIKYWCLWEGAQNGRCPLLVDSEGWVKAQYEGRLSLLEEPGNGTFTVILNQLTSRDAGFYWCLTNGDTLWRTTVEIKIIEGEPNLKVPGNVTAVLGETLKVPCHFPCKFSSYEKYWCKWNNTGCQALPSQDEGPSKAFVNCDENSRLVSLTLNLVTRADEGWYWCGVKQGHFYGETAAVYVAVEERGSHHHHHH
- Assay name: BLI (Octet RED384), 1:1 fit, 25 C, PBS; column kdis
Value kind: koff (s⁻¹)
Please respond with the number in s⁻¹ and leave the unit unwritten.

Value of koff reported for the binder VHH11-linker-mono-Fc protein (Fc fusion, made in CHO cells; also called VHH11-mono-Fc; hpIgR_250) EVQVVESGGGLVQAGGSLRLSCAASGRTFTTYRMGWFRQAPGKEREFVAAIRWSGGRTLYADSVKGRFTISRDNAKNTAYLQMNNLRPEDTAVYYCAADLAEYSGTYSSPADSPAGYDYWGQGTQVTVSSEPKTPKPQPQPQLQPQPNPTTESKSPKSPAPELLGGPSVFLFPPKPKDTLMISRTPEVTCVVVDVSHEDPEVKFNWYVDGVEVHNAKTKPREEQYNSTYRVVSVLTVLHQDWLNGKEYKCKVSNKALPAPIEKTISKAKGQPREPQVYTKPPSREEMTKNQVSLSCLVKGFYPSDIAVEWESNGQPENNYKTTVPVLDSDGSFRLASYLTVDKSRWQQGNVFSCSVMHEALHNHYTQKSLSLSPGK is 0.00281
